Below, each entry is listed with its recorded IC50 (nM) Ca2+ assay (calcium mobilization induced by 10 nM SDF-1).
- EXPERIMENTAL_SYSTEM: human CXCR4 (human, UniProt P61073 1-352)
- Sequence (P61073 whole entry): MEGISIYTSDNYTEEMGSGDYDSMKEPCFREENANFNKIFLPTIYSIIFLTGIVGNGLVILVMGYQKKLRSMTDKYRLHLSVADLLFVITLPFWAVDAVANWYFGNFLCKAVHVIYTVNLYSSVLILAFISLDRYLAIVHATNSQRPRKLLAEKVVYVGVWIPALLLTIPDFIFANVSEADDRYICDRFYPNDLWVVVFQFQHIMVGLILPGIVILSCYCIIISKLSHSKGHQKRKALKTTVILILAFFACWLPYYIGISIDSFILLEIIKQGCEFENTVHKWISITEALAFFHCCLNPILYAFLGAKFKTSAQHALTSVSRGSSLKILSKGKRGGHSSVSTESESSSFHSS
- PROCEDURE_TEXT: cell-based or functional assay
Bridge positions count the residues as written; N and C are the ends. Square brackets hold non-standard residues; d marks the D form. Primed or numbered codes have the meaning given here. FITC′ = 5(6)-fluoresceinthioureido on Lys N-epsilon (Lys(FITC)); Cit = NC(=O)NCCC[C@H](N)C(=O)O
Give the value, in units of nM, as a plain number.

Query block: May I ask what IC50 (nM) Ca2+ assay (calcium mobilization induced by 10 nM SDF-1) has been recorded for cyclo(YRTCRG[dP]RRYCYQK(FITC′)) (disulfide 4-11; not fully specified (C-terminus)) [Example 15] ?
Result block: 6

Query block: Which IC50 (nM) Ca2+ assay (calcium mobilization induced by 10 nM SDF-1) is reported for this binder? cyclo(SHYCRA[dP]FRFCYQK(FITC′)) (disulfide 4-11; not fully specified (C-terminus)) [Example 14]
Result block: 30.4

Query block: Would you mind telling me what IC50 (nM) Ca2+ assay (calcium mobilization induced by 10 nM SDF-1) value was observed for cyclo(KR[Cit]CRG[dP]RRWCY[Cit]Q) (disulfide 4-11; not fully specified (residue 1, C-terminus)) [Example 3] ?
Result block: 16.4
